Tested on: wheat germ agglutinin (Triticum aestivum), Alexa647-labelled
Test: wheat germ agglutinin binders on compound microarrays, profiling panel, artefact control for SMM control-protein annotation, biochemical, small-molecule microarray, 635/667 nm fluorescence (AID 1140);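 further: score merges 667 nm feature emission with signal to noise over triplicate slides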
Conditions: WGA-A647 binding, 635 nm fluorescence, higher = more signal
MEASURED_PARAMETER: composite z-score

# MOL, ASSAY_VALUE
measured = [
    ("O=C(NCC(F)(F)F)[C@@H]1c2ccccc2C(=O)N(Cc2ccc(OC(F)(F)F)cc2)[C@H]1c1ccc(CO)cc1", 0.444),
    ("COCCOC(=O)N1C(=O)[C@@]2(c3cc(C#Cc4ccc(OC)cc4)ccc31)[C@H](C(=O)Nc1nc3ccccc3s1)[C@H]1C(=O)O[C@H](c3ccccc3)[C@H](c3ccccc3)N1[C@@H]2c1ccc(O)cc1", 0.927),
    ("NCCCCCCNC(=O)[C@@H]1C[C@@H]2C(=O)N[C@@H](CCCCN)C(=O)N2[C@@H]1c1cccc(OCCO)c1", 0.641),
    ("CC(C)N1C(=O)c2ccccc2[C@@H](C(=O)NC2CC2)[C@@H]1c1ccc(CO)cc1", 0.22),
]
